Where these numbers come from: patent US12673961B2

biological target: human PAH with the R408W mutation (Homo sapiens, UniProt P00439, R408W); construct: expressed in transfected cells; experiment: Cell Based Phenylalanine Flux Assay; conditions: A375 cells expressing human R408W PAH; 24 hrs with compound, then sepiapterin and 13C9,15N-Phenylalanine for 4 hours; 13C-Tyrosine by LC-MS; average where tested multiple times; read-out: AC50;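 further: Ten-point dose curve from 2-fold serial dilutions, run in duplicate at 0.5% DMSO final, tracer step used 20 µM sepiapterin and 800 µM labeled phenylalanine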
Measured endpoint: AC50

Ask | Sample `Cc1cccc(-c2nnc(N3CCc4[nH]cnc4[C@@H]3c3cc4c(C)cccn4n3)o2)n1` — what was its AC50?
Reply | > 5 µM

Ask | And for `Fc1cccc(F)c1-c1nnc(N2CCc3[nH]cnc3[C@H]2c2cc3c(F)cccn3n2)o1` ?
Reply | < 0.5 µM

Further cases:
Ask | If you can, please state the reported AC50 value of `COc1cccn2nc([C@@H]3c4nc[nH]c4CCN3C(=O)c3cnn4cc(-c5ccn(C)n5)ccc34)cc12` .
Reply | 0.5 to 1 µM

Ask | And then `O=C(c1cn[nH]c1C(F)F)N1CCc2[nH]cnc2[C@H]1c1cc2ccccn2n1` , what is it?
Reply | 1 to 5 µM

====

Biological target: human PAH with the R408W mutation (Homo sapiens, UniProt P00439, R408W)
Construct: expressed in transfected cells
Sequence (P00439 1-452 R408W): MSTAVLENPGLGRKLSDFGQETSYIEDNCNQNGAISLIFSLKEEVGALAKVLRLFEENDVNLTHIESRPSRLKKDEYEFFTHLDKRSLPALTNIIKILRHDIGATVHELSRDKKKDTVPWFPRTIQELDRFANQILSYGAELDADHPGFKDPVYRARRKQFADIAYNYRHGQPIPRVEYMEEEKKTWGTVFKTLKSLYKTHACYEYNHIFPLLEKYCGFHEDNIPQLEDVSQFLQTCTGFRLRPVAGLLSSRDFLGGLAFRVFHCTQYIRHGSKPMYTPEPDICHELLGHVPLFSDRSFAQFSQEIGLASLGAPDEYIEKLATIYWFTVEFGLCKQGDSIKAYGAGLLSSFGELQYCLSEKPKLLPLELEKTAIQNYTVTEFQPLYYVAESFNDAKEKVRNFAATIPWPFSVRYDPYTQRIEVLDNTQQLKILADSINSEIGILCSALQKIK
Assay: Cell Based Phenylalanine Flux Assay
Details: A375 cells expressing human R408W PAH; 24 hrs compound incubation; 13C-Tyrosine by LC-MS; average where tested multiple times; read-out: AC50
As shown below, each of these compounds has a reported AC50 value.

Ask | Item under review: `Cc1nc(C(=O)N2CCc3[nH]cnc3[C@H]2c2cc3c(Cl)cccn3n2)n(C)n1` . Reported AC50?
Reply | 0.5 to 1 µM

Ask | Also `Cc1cccc2cc([C@H]3c4nc[nH]c4CCN3C(=O)c3nnc(C(C)(C)F)o3)nn12` ?
Reply | > 5 µM

Ask | Let us now turn to `CC(C)(F)c1nnc(C(=O)N2CCc3[nH]cnc3[C@H]2c2cc3c(Cl)cccn3n2)o1`
Reply | < 0.5 µM

Ask | Param item: `Cc1ncoc1C(=O)N1CCc2[nH]cnc2[C@@H]1c1cc2cccc(C(F)(F)F)n2n1`
Reply | 1 to 5 µM

Ask | Lookup `O=C(c1nnc(-c2ccccn2)o1)N1CCc2[nH]cnc2[C@H]1c1cc2c(C(F)F)cccn2n1`
Reply | < 0.5 µM

Ask | Lookup `Cc1cccc2cc([C@H]3c4nc[nH]c4CCN3C(=O)c3nnc(-c4ccccn4)o3)nn12`
Reply | > 5 µM

Ask | Repeat for the following compound: `Cn1nc(C(F)F)cc1C(=O)N1CCc2[nH]cnc2[C@H]1c1cc2cccc(C(F)(F)F)n2n1`
Reply | 0.5 to 1 µM

Ask | Also `Cc1ccc2cc([C@@H]3c4nc[nH]c4CCN3C(=O)c3nnc(C(C)(C)C)o3)nn2c1` , if possible.
Reply | 0.5 to 1 µM

Continuing:
Ask | # query: AC50 of entry `O=C(c1ccnn1C1CC1)N1CCc2[nH]cnc2[C@H]1c1cc2c(F)cccn2n1`
Reply | < 0.5 µM

Ask | # repeat for `Cc1cccc2cc([C@H]3c4nc[nH]c4CCN3C(=O)c3nnc(C4(C)CC4)o3)nn12`
Reply | 1 to 5 µM

Ask | Now give it for `O=C(c1nnc(-c2cnccn2)o1)N1CCc2[nH]cnc2[C@H]1c1cc2cccc(C(F)(F)F)n2n1` too.
Reply | 0.5 to 1 µM

Ask | Would you kindly repeat that for `Cc1cccc(-c2nnc(C(=O)N3CCc4[nH]cnc4[C@H]3c3cc4ccccn4n3)o2)n1` ?
Reply | < 0.5 µM

Ask | Repeat for the following compound: `O=C(c1nnc(-c2ccccn2)o1)N1CCc2[nH]cnc2[C@H]1c1cc2c(C(F)(F)F)cccn2n1`
Reply | < 0.5 µM

Ask | What about `Cc1cccc2cc([C@@H]3c4nc[nH]c4CCN3C(=O)c3oc([C@@H](C)O)nc3C(F)F)nn12` ?
Reply | < 0.5 µM

Ask | Also, `Cn1nc(C(F)F)nc1C(=O)N1CCc2[nH]cnc2[C@@H]1c1cc2ccc(C(F)(F)F)cn2n1` please.
Reply | 1 to 5 µM
